Target under test: Factor D (Homo sapiens (Human), UniProt P00746)
Sequence (P00746 26-253): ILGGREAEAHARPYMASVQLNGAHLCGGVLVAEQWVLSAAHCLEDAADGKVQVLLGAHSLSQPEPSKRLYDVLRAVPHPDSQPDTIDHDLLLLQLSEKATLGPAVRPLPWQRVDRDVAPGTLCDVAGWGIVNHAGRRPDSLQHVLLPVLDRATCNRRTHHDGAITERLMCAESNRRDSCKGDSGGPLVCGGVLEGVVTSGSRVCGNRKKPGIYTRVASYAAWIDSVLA
Procedure text: biochemical
Assay type: biochemical
Conditions: read-out: IC50
Quantity name: pIC50
Scale explanation: pIC50 corresponds to minus log10 of a concentration expressed in moles per litre.

Briefly, pIC50 measured for Cn1nc(C(C)(C)C)cc1NC(=O)[C@@H]1CCCN1C(=O)Nc1cn(C(N)=O)c2ccccc12 [Example 279] : 5.54

For NC[C@@H]1C[C@@H](C(=O)Nc2cccc(OC(F)(F)F)c2)N(C(=O)Nc2cn(C(N)=O)c3ccccc23)C1 [Example 404] the compound record lists pIC50 as 6.00

response.value for NC(=O)n1cc(NC(=O)N2CSC[C@H]2C(=O)Nc2cccc(OC(F)(F)F)c2)c2ccccc21 [Example 161] (field: pIC50) = 6.01

Just so you know, measured pIC50 for NC(=O)n1cc(NC(=O)N2C[C@@H](N)C[C@H]2C(=O)NCc2ccccc2O)c2ccccc21 [Example 48] came out at 5.12

Lab book: pIC50 of CC(=O)c1nn(CC(=O)N2[C@@H]3C[C@@H]3C[C@H]2C(=O)N[C@H](CO)c2cccc(Cl)c2F)c2ncccc12 [Example 677] noted as 8.00

pIC50 for NC(=O)c1nn(CC(=O)N2[C@@H]3C[C@@H]3C[C@H]2C(=O)Nc2cccc(Cl)c2F)c2ccccc12 [Example 731] is 7.28

compound CN(C)CCOc1ccc2c(c1)c(NC(=O)N1[C@@H]3C[C@@H]3C[C@H]1C(=O)NCc1cccc(Cl)c1F)cn2C(N)=O [Example 387] , pIC50 observed: 7.24

Where do these numbers come from? They come from patent US9085555B2.
